System: MCF7 breast
EXPERIMENTAL_DETAILS: NCI-60 one-dose screen, 48 h (100 = growth as untreated, 0 = no growth, -100 = all killed)
CONDITION_CONTEXT: 10 µM unless noted
Compounds without any hit were thinned out: in the full panel of roughly 83,000, 20% have a hit. Active and inactive are the calls of the source. Rule for the calls: active = growth percent below 10; inactive = the rest.
Listed here: items and their measured growth.

Please review the following examples before continuing.
COMPOUND	growth
NC[C@@](O)(c1ccc(Cl)cc1)c1ccc(-c2cn[nH]c2)cc1	-22.2% (active)
COc1ccc(-n2c(=O)c3ccccc3n(Cc3ccc(C(=O)NO)cc3)c2=O)cc1	25.9% (inactive)
C=CC(=O)Nc1cc2c(Nc3ccc(F)c(Cl)c3)ncnc2cc1OCCCN1CCOCC1	13.7% (inactive)

Task: // lookup growth for O=CC(OC(=O)c1ccccc1)C(OC(=O)c1ccccc1)C(COC(c1ccccc1)(c1ccccc1)c1ccccc1)OC(=O)c1ccccc1 (centres undefined)
Result: 36.6% (inactive)

Task: // lookup growth for `Cc1cn(-c2cc(NC(=O)c3ccc(C)c(Nc4nccc(-c5cccnc5)n4)c3)cc(C(F)(F)F)c2)cn1`
Result: 12.8% (inactive)

Task: // lookup growth for `CCN(CC)CCNc1ccc(N=Nc2cnc3ccccc3c2)c2ccccc12`
Result: -79.2% (active)

Task: // lookup growth for O=C1CC(c2ccc(Cl)cc2)c2ncn(-c3cccc(Cl)c3)c2N1 (centres undefined)
Result: 61.2% (inactive)

Task: // lookup growth for `COc1c(OCCCN2CCOCC2)ccc2c3n(c(=NC(=O)c4cnc(N)nc4)nc12)CCN3`
Result: 11.9% (inactive)

Task: // lookup growth for C=CCCCC(=O)CCC(=O)OCC1O[C@@H](O[C@@H]2C(O)[C@@H](OC(C)=O)C(C)O[C@H]2O[C@H](CC=C)CCCCC)C(O)[C@@H](OC(=O)/C(C)=C/C)[C@@H]1OC(=O)/C=C/c1ccccc1 (some centres undefined)
Result: 17.6% (inactive)
